Read-out: Cyclin Dependent Kinase Inhibitor 1A (CDKN1A), CDKN1A (gene 1026)
assay.method.text: LTEA_HepaRG_CDKN1A: Life Technologies and Expression Analysis (LTEA) Assay for Cyclin Dependent Kinase Inhibitor 1A (CDKN1A) using HepaRG (AID 2283450)
assay.setup: mRNA level, 48 h; actives raise or lower the signal
Active and inactive are the calls of the source. The calls were made as follows: active = hit-call score of the fitted dose curve at least 0.9, where 1 is the maximum; inactive = score below 0.9.
The reply should be one of these categories: active, inactive

Challenge: Answer briefly: the call reported for `C#CC(C)(C)NC(=O)c1cc(Cl)cc(Cl)c1` in this assay.
Response given: inactive

Challenge: Answer briefly: the call reported for CCOP(=O)(SC(C)CC)N1CCSC1=O (stereo not drawn) in this assay.
Response given: inactive

Challenge: Answer briefly: the call reported for CCc1cnc(C2=NC(C)(C(C)C)C(=O)N2)c(C(=O)O)c1 (stereo not drawn) in this assay.
Response given: inactive

Challenge: Answer briefly: the call reported for `COP(=O)(OC)SCn1c(=O)oc2cc(Cl)cnc21` in this assay.
Response given: inactive

Challenge: Answer briefly: the call reported for `CCNc1nc(Cl)nc(NC(C)(C)C#N)n1` in this assay.
Response given: inactive

Challenge: Answer briefly: the call reported for `Cc1nn(-c2cc(NS(C)(=O)=O)c(Cl)cc2Cl)c(=O)n1C(F)F` in this assay.
Response given: inactive

Challenge: Answer briefly: the call reported for CC(C1CC1)C(O)(Cn1cncn1)c1ccc(Cl)cc1 (stereo not drawn) in this assay.
Response given: inactive

Challenge: Answer briefly: the call reported for `S=C1NCCN1` in this assay.
Response given: inactive

Challenge: Answer briefly: the call reported for `O=[N+]([O-])c1cc(C(F)(F)F)c(Cl)c([N+](=O)[O-])c1Nc1ncc(C(F)(F)F)cc1Cl` in this assay.
Response given: inactive

Challenge: Answer briefly: the call reported for FC(F)C(F)(F)OCC(Cn1cncn1)c1ccc(Cl)cc1Cl (stereo not drawn) in this assay.
Response given: active

Challenge: Answer briefly: the call reported for `CCCCSP(=O)(SCCCC)SCCCC` in this assay.
Response given: inactive

Challenge: Answer briefly: the call reported for `CSc1nc(NC(C)C)nc(NC(C)C)n1` in this assay.
Response given: inactive

Challenge: Answer briefly: the call reported for `CN(C)C(=O)Nc1cccc(C(F)(F)F)c1` in this assay.
Response given: inactive
